target: FGFR3 (UniProt P22607); test: phosphorylation enrichment, bacterial display (enrichment ratio); higher = better substrate or ligand; peptides without Tyr show the background;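 further: 11-residue human phosphosite peptides and single-mutation variants displayed on the E. coli surface, counted by deep sequencing, each peptide's frequency after selection divided by its frequency in the unselected input library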;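 further: frequency after pTyr selection over input frequency; kinase dosed for 20-30% of maximal phosphorylation in three min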
Sequence (P22607 whole entry, looked up): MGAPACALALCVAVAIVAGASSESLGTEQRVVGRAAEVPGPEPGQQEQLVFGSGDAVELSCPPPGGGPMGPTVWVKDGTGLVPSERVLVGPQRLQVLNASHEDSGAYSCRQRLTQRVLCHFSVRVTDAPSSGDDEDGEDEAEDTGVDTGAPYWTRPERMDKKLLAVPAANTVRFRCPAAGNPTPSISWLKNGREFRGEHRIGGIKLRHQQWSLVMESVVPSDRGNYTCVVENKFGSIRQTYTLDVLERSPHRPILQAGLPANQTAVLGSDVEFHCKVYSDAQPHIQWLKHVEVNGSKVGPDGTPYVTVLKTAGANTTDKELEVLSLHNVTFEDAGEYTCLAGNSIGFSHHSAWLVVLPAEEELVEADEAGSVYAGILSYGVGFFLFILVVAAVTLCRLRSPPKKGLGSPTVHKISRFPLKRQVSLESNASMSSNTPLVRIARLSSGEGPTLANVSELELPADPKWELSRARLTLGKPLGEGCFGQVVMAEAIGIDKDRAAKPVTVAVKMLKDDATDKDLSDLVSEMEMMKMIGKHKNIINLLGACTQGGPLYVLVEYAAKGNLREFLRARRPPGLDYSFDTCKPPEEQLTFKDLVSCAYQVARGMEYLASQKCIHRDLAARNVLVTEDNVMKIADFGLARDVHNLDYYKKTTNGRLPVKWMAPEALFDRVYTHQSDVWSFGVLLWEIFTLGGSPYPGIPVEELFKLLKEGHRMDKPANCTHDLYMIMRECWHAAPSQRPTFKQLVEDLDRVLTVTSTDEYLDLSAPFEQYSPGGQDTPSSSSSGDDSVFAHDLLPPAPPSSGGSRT
Please enter 1 (yes) where phosphorylation enrichment is greater than or equal to 0.6, and 0 (no) where it is lower.

> print(dat)
                      residue.string   target.or.test.system  classification
 1           DTQNSYGCATS [TSC1_Y304]  FGFR3 (UniProt P22607)         1 (yes)
 2      IRTDAYVWAMT [RPE65_Y89_R91W]  FGFR3 (UniProt P22607)         1 (yes)
 3  NGSFLYVIISQ [LRP1B_Y1988_R1987L]  FGFR3 (UniProt P22607)         1 (yes)
 4    KAESWYQTKYE [KRT75_Y342_E337K]  FGFR3 (UniProt P22607)          0 (no)
 5             GEEIKYMLWLS [OTC_Y55]  FGFR3 (UniProt P22607)         1 (yes)
 6          IDFARYWHGDD [MMP11_Y162]  FGFR3 (UniProt P22607)          0 (no)
 7        GNEEAYGRSHI [FAM171B_Y522]  FGFR3 (UniProt P22607)          0 (no)
 8     DRLASYLDKMR [KRT17_Y98_V102M]  FGFR3 (UniProt P22607)          0 (no)
 9      KRISCYEASFQ [PFKFB3_Y194_YF]  FGFR3 (UniProt P22607)         1 (yes)
10      VKPENDRRLDI [VHL_Y175_Y175D]  FGFR3 (UniProt P22607)          0 (no)
11      PVKAAYQKVVA [HBB_Y131_Q128K]  FGFR3 (UniProt P22607)         1 (yes)
12       DHAGEYGAEAL [HBA1_Y25_A20D]  FGFR3 (UniProt P22607)         1 (yes)

---

We begin with a simple list: items and their reported phosphorylation enrichment.
biological target: Fes (UniProt P07332); experiment: phosphorylation enrichment, bacterial display (enrichment ratio); higher = better substrate or ligand; peptides without Tyr show the background
Sequence (P07332 whole entry, looked up): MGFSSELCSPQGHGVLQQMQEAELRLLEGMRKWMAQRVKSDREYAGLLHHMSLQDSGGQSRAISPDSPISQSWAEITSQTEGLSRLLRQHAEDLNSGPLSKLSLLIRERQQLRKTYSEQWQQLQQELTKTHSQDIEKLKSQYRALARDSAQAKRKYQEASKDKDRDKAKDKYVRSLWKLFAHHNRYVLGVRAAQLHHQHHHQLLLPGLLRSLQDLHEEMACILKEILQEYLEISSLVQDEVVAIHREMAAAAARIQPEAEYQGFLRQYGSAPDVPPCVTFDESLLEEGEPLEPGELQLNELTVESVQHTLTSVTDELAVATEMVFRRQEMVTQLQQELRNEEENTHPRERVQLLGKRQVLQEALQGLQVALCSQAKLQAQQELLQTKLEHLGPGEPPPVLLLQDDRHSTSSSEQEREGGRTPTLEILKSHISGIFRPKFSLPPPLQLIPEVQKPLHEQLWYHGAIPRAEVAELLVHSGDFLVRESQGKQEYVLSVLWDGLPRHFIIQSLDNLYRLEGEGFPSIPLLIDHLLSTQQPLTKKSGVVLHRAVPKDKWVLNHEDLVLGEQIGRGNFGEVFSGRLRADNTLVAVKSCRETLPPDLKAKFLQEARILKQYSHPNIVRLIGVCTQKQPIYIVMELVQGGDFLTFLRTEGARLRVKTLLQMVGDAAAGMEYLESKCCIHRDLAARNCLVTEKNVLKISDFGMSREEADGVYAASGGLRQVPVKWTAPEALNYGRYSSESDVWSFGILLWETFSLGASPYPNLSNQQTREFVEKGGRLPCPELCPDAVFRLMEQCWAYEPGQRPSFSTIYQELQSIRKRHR
ENDPOINT_NAME: phosphorylation enrichment

> print(dat)
                       residue.string  target.or.test.system               endpoint.name  value.reported
 1       EFFDGYWGFSV [ITGA2B_Y265_YF]   Fes (UniProt P07332)  phosphorylation enrichment            1.15
 2            LIHTKYPQLLP [AHCY_Y143]   Fes (UniProt P07332)  phosphorylation enrichment            0.81
 3       RGNKEYKEEKR [LENG1_Y96_E97K]   Fes (UniProt P07332)  phosphorylation enrichment           0.861
 4           HNLDYYKKTTN [FGFR3_Y648]   Fes (UniProt P07332)  phosphorylation enrichment             1.2
 5    IQRSLYDCPAS [PDGFRA_Y762_R764C]   Fes (UniProt P07332)  phosphorylation enrichment           0.973
 6      SAQHHYESLQT [BIN1_Y157_R154Q]   Fes (UniProt P07332)  phosphorylation enrichment           0.622
 7          DLLMQYPKAQG [FAM83C_Y600]   Fes (UniProt P07332)  phosphorylation enrichment           0.543
 8    TESNNYIYTTL [FAM83B_Y637_K640T]   Fes (UniProt P07332)  phosphorylation enrichment           0.898
 9         QDRTFYESVRT [SPEN_Y633_YF]   Fes (UniProt P07332)  phosphorylation enrichment            1.04
10     VGQRPYRPLPE [REEP3_Y170_Q171R]   Fes (UniProt P07332)  phosphorylation enrichment           0.637
11            MGRVNYGAYIN [GLB1_Y485]   Fes (UniProt P07332)  phosphorylation enrichment           0.617
12            FDSPFYRDSLP [TSC1_Y508]   Fes (UniProt P07332)  phosphorylation enrichment            0.68
13     INITIYGKTFC [EFHC1_Y177_R182C]   Fes (UniProt P07332)  phosphorylation enrichment            1.48
14      RHLQEYQDPLN [GFAP_Y349_L352P]   Fes (UniProt P07332)  phosphorylation enrichment           0.959
15      EDKFMYSEFPQ [PTEN_Y240_F241S]   Fes (UniProt P07332)  phosphorylation enrichment            1.21
16              DKATEYIQYMR [MAX_Y70]   Fes (UniProt P07332)  phosphorylation enrichment           0.622
17  EVESPYEVRDY [GIGYF2_Y1168_H1171R]   Fes (UniProt P07332)  phosphorylation enrichment            1.29
18     SPPEVYAIMRG [NTRK1_Y757_C752S]   Fes (UniProt P07332)  phosphorylation enrichment           0.808
19      WQQQSYLASGI [CTNNB1_Y30_D32A]   Fes (UniProt P07332)  phosphorylation enrichment           0.754
20       ALAHEYHGGGG [HBB_Y146_K145E]   Fes (UniProt P07332)  phosphorylation enrichment           0.461
21    EPVSDYINASI [PTPN11_Y304_N308S]   Fes (UniProt P07332)  phosphorylation enrichment            1.03
22      NYSKMYCNPDA [KNL1_Y489_A486S]   Fes (UniProt P07332)  phosphorylation enrichment           0.914
23  FKPGFYNLKEK [LAMA1_Y490_C485Y_YF]   Fes (UniProt P07332)  phosphorylation enrichment           0.689
24            LGSWTYTKTVS [ROS1_Y144]   Fes (UniProt P07332)  phosphorylation enrichment            2.38
25    TRSFKCLLLSM [NF1_Y491_Y491C_YF]   Fes (UniProt P07332)  phosphorylation enrichment            1.08
26        FSDQVYRQHRK [TH_Y230_R233H]   Fes (UniProt P07332)  phosphorylation enrichment           0.644
27   LFMGDYVGRGF [PPP2CA_Y86_D88G_YF]   Fes (UniProt P07332)  phosphorylation enrichment            1.04
28             DPHECYAKVFD [ALB_Y394]   Fes (UniProt P07332)  phosphorylation enrichment            1.14
29    LAETSYVIVLE [MAGEA1_Y276_K278I]   Fes (UniProt P07332)  phosphorylation enrichment            2.35

---

target: FGFR3 (UniProt P22607); assay: phosphorylation enrichment, bacterial display (enrichment ratio); higher = better substrate or ligand; peptides without Tyr show the background
Recorded phosphorylation enrichment determines the label; the label ranges are lower band = under 0.6, central band = from 0.6 up to 1, upper band = 1 and over

> print(dat)
                        residue.string  classification
 1        ITNLLYHVVSW [GBA_Y412_G416S]      upper band
 2       TGVWDYIHVVD [GALE_Y241_R239W]    central band
 3       RRGMPYGGLGD [TGM1_Y312_R315L]      lower band
 4           DLGIQYKALKP [CTNNA1_Y177]    central band
 5  CKLCQYFLDHL [ATRX_Y1849_Y1847C_YF]    central band
 6         DTFDPYLDVAL [USP36_Y268_YF]    central band
 7         AHPGEYGAEAL [HBA1_Y25_A22P]      lower band
 8           EGLKVYVNGTL [ADGRD1_Y183]      upper band
 9       QQIFTYDSGIH [JUP_Y22_T19I_YF]      upper band
10     RYLTRYIYNRE [HLA-DQB1_Y62_V59L]    central band
11      ASKEPYYVHCI [MYO1D_Y585_R588H]      upper band
12            HNLDYYKKTTN [FGFR3_Y648]    central band
13       SSVPDYLAAVD [GLB1_Y154_D151V]      upper band
14            FHKALYTVRSY [PDE6C_Y266]      lower band
15          QRDSSYFWEIE [RAF1_Y340_YF]      upper band
16      FKDYFYCWNTS [AICDA_Y146_F151S]      upper band
17    QQPGPYDRPGA [HNRNPH2_Y210_R206Q]    central band
18       AESPEYVHMFT [FAM111A_Y511_YF]      upper band
19  DAANNYARGHF [TUBA3E_Y103_S101N_YF]      lower band
20     MEFAKYGSLRG [RET_Y809_V804M_YF]      lower band
21       LLDGEYFTLQI [TP53_Y327_P322L]      upper band
22       KVVNEYVTKGQ [MYH7_Y410_G407V]      lower band
23             SLIDGYYRLTA [JAK2_Y372]      upper band
24              EFENSYIFDIN [GAB1_Y83]    central band
25       NKEPRYQEEPP [TJP2_Y479_D482E]    central band
26            ANNPLYKEATS [ITGB3_Y773]      lower band
27     SGTFQYIIAKF [FOXL2_Y83_I80T_YF]    central band
